These measurements were taken from ChEMBL document CHEMBL1201862.

- System: KM-20L2
- PROTOCOL_NOTES: NCI tumour cell line growth inhibition, 48 h
Calls of active or inactive are those of the source. No stated cut-off is given here; in the data, active = GI50 up to about 1.1 µM and inactive = higher.
Hi there, I'd appreciate the recorded GI50 for every entry that follows.

Input line: What value of measured GI50 is listed for CCC1(Cl)C(=O)NC(=O)N(C2CC(O)C(CO)O2)C1N=[N+]=[N-] (stereo not given) ?
Output line: > 100 µM (inactive)

Input line: Return reported GI50; argument: CC(C)C1COC(C(C)(C)C2=N[C@@H](C(C)C)CO2)=N1 (stereo not given in full)
Output line: > 100 µM (inactive)

Input line: Item under review: CNC(=O)OC1/C(C)=C\C(C)C(O)C(OC)CC(C)CC2=C(OC)C(=O)C=C(C2=O)N(C)C(=O)/C(C)=C/C=C\C1OC (stereo not given) . Reported GI50?
Output line: 2.53 µM (inactive)

Input line: # lookup: GI50 of `CC(C)N(C(=O)C1(C)CC1)C(C)C`
Output line: > 100 µM (inactive)

Input line: Give its GI50 value. Item: CC(=O)O[C@]12CCCCCCC1C1(O)C(O)CCC[C@H]12 (stereo not given in full)
Output line: > 100 µM (inactive)

----------
The following compounds each carry a recorded log10 GI50 for HCT-15.
Record value = log10 of GI50 given in µM.

Input line: Can you share its log10 GI50? I mean this compound: `CC(=O)c1ccc(Nc2c3c(nc4ccccc24)CCCC3)cc1`
Output line: 1.14

Input line: What measured log10 GI50 goes with `C[S+](C)CC(=O)c1ccc2c(c1)Sc1ccccc1O2` ?
Output line: 0.39

Input line: Request the reported log10 GI50 associated with `N#Cc1cc2c(cc1Cl)Sc1nccn1S2(=O)=O`
Output line: 0.10

Input line: What does the record list as log10 GI50 for `N#C/C(C(=O)CCl)=C1\Nc2ccccc2O1` ?
Output line: 0.30

Input line: // query log10 GI50 value for entry CNC(=O)OC1/C(C)=C\C(C)C(O)C(OC)CC(C)CC2=C(OC)C(=O)C=C(C2=O)N(C)C(=O)/C(C)=C/C=C\C1OC (stereo not given)
Output line: 0.83

----------
Assign GI50 to each entry below.
- System: OVCAR-8
- PROTOCOL_NOTES: NCI tumour cell line growth inhibition, 48 h
Calls of active or inactive are those of the source. Rule as the data show it: active = GI50 up to about 1.1 µM and inactive = higher.

Input line: Hi! What's the reported GI50 for `O=C(C[N+]1(c2ccccc2)CCOCC1)c1ccccc1` on OVCAR-8?
Output line: > 100 µM (inactive)

Input line: # query: GI50 | item `CCOC(=O)OC1(c2ccccc2)CCN(C)CC1` | system: OVCAR-8
Output line: > 100 µM (inactive)

Input line: Request: GI50, test system OVCAR-8, entry `CC(C)(C)OC(=O)N1C(=O)OC[C@@H]2C=C[C@@H]21`
Output line: > 100 µM (inactive)

Input line: For the record `COc1cc(Nc2nc3ccccc3n3cccc23)cc(OC)c1OC` , what value of GI50 is listed for OVCAR-8?
Output line: 20.3 µM (inactive)

Input line: Identify the measured GI50 of `COc1ccc([C@H]2[C@@H]3CCc4ccccc4C3=NN2C(N)=S)cc1OC` for OVCAR-8.
Output line: 74.3 µM (inactive)

Input line: // lookup GI50 | system=OVCAR-8 | key= `COC(=O)C1=Nc2c(C)nn(-c3ccccc3)c2N=C(c2ccc(C)cc2)C1`
Output line: > 10 µM (inactive)

Input line: Find GI50 (OVCAR-8) for the entry CCOP(=O)(OCC)C(C)(CC)NC(=O)C(C(F)(F)F)C(F)(F)F (stereo unspecified)
Output line: > 100 µM (inactive)

Input line: # get_value(readout= GI50, system= OVCAR-8) for CC1=CCC2(C#N)CCC1C2=O (stereo unspecified)
Output line: > 100 µM (inactive)

Input line: Please tell me: GI50 of `Cc1nnc(N)nc1/C=C\c1cccs1` , system OVCAR-8?
Output line: 17 µM (inactive)

Input line: Give recorded GI50 with OVCAR-8 for the following compound: `COc1ccc(/C=C2\CCS(=O)(=O)c3ccccc3C2=O)cc1OC`
Output line: 19.1 µM (inactive)

Input line: Provide the documented GI50 with OVCAR-8 as the system for `COc1c(OC)c(O)c2c(=O)c(OC)c(-c3ccc4c(c3)OCO4)oc2c1O`
Output line: > 100 µM (inactive)
